The reported numbers originate from patent US20020177126A1.

target: F protein of wild type RSV A/Long (respiratory syncytial virus, strain …, UniProt P12568 26-574); experiment: cell-based or functional assay
Sequence (P12568 26-574): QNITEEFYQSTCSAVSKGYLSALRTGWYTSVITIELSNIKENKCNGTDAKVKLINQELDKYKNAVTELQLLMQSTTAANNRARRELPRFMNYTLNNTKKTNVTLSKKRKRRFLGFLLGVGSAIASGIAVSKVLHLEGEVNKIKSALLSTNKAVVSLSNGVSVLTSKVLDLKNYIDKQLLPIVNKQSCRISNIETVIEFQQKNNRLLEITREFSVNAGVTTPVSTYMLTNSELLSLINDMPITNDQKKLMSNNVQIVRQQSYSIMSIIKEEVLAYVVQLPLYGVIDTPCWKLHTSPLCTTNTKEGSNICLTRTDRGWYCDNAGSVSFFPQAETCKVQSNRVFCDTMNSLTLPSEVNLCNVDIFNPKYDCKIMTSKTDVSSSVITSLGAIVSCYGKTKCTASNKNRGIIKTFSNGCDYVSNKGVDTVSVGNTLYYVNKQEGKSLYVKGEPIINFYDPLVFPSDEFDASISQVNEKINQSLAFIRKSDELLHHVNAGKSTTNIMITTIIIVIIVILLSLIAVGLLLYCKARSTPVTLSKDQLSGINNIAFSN
Answer each item with its documented Mean IC50 (Curve), RSV microneutralization.
Output spec: scalar in µg/mL, unitless text.

Dear colleague, I am looking for the recorded Mean IC50 (Curve), RSV microneutralization of the following binder: P11d4 (monoclonal antibody) (antibody, V domains shown) VH: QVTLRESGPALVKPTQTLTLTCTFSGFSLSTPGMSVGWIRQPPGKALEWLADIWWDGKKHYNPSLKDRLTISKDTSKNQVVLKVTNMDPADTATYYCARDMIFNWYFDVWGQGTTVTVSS VL: DIQMTQSPSTLSASVGDRVTITCSPSSRVGYMHWYQQKPGKAPKLLIYDTMRLASGVPSRFSGSGSGTEFTLTISSLQPDDFATYYCFQGSGYPFTFGGGTKVEIK
0.0217

Please look up its Mean IC50 (Curve), RSV microneutralization: A13c4 (monoclonal antibody) (antibody, V domains shown) VH: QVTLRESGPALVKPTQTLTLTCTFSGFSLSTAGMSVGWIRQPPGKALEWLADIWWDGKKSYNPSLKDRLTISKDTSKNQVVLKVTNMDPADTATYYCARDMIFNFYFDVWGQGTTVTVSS VL: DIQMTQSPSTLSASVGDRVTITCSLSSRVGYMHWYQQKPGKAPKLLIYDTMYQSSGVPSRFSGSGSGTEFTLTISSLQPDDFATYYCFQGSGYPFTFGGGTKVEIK
0.0376
